Test: self-splicing fitness, log relative to wild type (ln ratio); higher = more splicing; Tetrahymena group I intron in knt gene, E. coli kanamycin selection, DiMSum; sequences stand for … in CUCUCU…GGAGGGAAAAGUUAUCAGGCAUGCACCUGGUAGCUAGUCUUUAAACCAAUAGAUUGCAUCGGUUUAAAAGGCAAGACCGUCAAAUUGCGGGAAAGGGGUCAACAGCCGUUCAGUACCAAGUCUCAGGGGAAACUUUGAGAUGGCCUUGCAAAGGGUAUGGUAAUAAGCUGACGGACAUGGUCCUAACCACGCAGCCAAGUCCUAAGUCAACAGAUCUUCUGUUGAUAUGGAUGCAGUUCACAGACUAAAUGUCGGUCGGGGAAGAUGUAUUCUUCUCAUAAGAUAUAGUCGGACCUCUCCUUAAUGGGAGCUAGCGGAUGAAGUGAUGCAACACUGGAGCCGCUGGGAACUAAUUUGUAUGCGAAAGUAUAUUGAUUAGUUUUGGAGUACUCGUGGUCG;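 further: selection with 25 µg/mL kanamycin versus none on LB agar overnight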
Conditions: 30 °C
endpoint-label: self-splicing fitness (ln)

UACAAGCAAUAUUACGUACG | -3.9
CUGUAGCAAUAUUACGACGU | -1.13
CAGCAGCAAUAUUACGCGAG | -2.74
AGAUAGCAAUAUUACGCUGA | -1.79
UGAUAGCAAUAUUACGGACG | -0.432
AUCGAGCAAUAUUACGUCCG | -3.17
UAAGAGCAAUAUUACGAAAG | -3.88
AUAGAGCAAUAUUACGUGAC | -1.62
AACAAGCAAUAUUACGUUCU | -2.01
UGUGAGCAAUAUUACGGGCG | -0.245
UAUAAGCAAUAUUACGCCAU | -1.19
ACCGAGCAAUAUUACGUGGG | -2.62
UUAAAGCAAUAUUACGUUGU | -3.19
CGUUAGCAAUAUUACGGCCA | -1.01
GUCCAGCAAUAUUACGAUAC | -0.876
UCGUAGCAAUAUUACGCAAG | -3.91
ACAUAGCAAUAUUACGUGUA | -2.68
CAUAAGCAAUAUUACGCGGU | -3.72
AAACAGCAAUAUUACGGAGG | -4.68
ACGAAGCAAUAUUACGUGAC | -3.87
AUGCAGCAAUAUUACGUUGU | -4.08
CAGCAGCAAUAUUACGUGUG | -2.51
GUGUAGCAAUAUUACGUGCA | -2.55
AAUAAGCAAUAUUACGGAAU | -2.69
GGUAAGCAAUAUUACGAUCU | -0.636
UAUGAGCAAUAUUACGUGCC | -4.14
AGAUAGCAAUAUUACGGGAA | -3
GCAGAGCAAUAUUACGUUCA | -2.06
UCGUAGCAAUAUUACGAGCA | -0.579
CAGGAGCAAUAUUACGAUAA | -3.33
GUUUAGCAAUAUUACGGGUA | -3
GGCCAGCAAUAUUACGAAUA | -3.4
GCGAAGCAAUAUUACGGGCU | -2.68
GCCAAGCAAUAUUACGCGGC | -3.04
UAGAAGCAAUAUUACGUUGC | -4.3
ACCCAGCAAUAUUACGGAGC | -1.06
UUCUAGCAAUAUUACGAUCU | -2.84
GUAAAGCAAUAUUACGGUGG | -2.81
CUUAAGCAAUAUUACGCUGG | -4.54
GUCUAGCAAUAUUACGGAUC | -1.99
CGCAAGCAAUAUUACGAUGU | -1.6
CAACAGCAAUAUUACGAAAU | -2.7
CCACAGCAAUAUUACGAAGG | -3.62
GCGGAGCAAUAUUACGCAAC | -2.35
GCGAAGCAAUAUUACGCGAG | -2.08
GGAGAGCAAUAUUACGAUGC | -2.8
GGCCAGCAAUAUUACGCGGU | -3.63
CUCCAGCAAUAUUACGUGAA | -1.24
UCAGAGCAAUAUUACGCCCA | -2.06
GCAAAGCAAUAUUACGUAGU | -2.09
CAGAAGCAAUAUUACGGCAA | -2.48
UAGGAGCAAUAUUACGAUGC | -1.78
AUCUAGCAAUAUUACGAAAG | -3.62
CACUAGCAAUAUUACGGCAA | -4.1
CUGUAGCAAUAUUACGGUCU | -3.53
GAAUAGCAAUAUUACGUUGC | -4.27
GUAAAGCAAUAUUACGCUCU | -2.11
GCUGAGCAAUAUUACGAGCG | -0.822
UAGAAGCAAUAUUACGGGAA | -1.96
GGGUAGCAAUAUUACGAGGA | -2.14
UCACAGCAAUAUUACGAGAG | -3.55
UCCAAGCAAUAUUACGAAGG | -1.32

* * *

Test: self-splicing fitness, log relative to wild type (ln ratio); higher = more splicing; Tetrahymena group I intron in knt gene, E. coli kanamycin selection, DiMSum; sequences stand for … in CUCUCU…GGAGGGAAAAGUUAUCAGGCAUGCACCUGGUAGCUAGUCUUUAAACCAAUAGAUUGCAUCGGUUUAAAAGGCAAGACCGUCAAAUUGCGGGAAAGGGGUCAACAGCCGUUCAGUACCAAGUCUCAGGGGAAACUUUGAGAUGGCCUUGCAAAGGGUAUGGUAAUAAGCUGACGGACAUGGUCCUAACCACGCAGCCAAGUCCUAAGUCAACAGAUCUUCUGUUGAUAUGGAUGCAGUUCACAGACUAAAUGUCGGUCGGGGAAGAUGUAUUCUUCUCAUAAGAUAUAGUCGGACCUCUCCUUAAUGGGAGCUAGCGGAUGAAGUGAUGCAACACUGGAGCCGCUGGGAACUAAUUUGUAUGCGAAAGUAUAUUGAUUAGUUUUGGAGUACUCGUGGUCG
Details: 37 °C
// reported self-splicing fitness (ln) per item
endpoint-label: self-splicing fitness (ln)

AUCCAGCAAUAUUACGCUGA | -1.22
AAUAAGCAAUAUUACGACCU | 0.726
UCCGAGCAAUAUUACGUUGU | -2.96
AGGUAGCAAUAUUACGUUCG | -0.42
AGAGAGCAAUAUUACGCAGU | -2.32
UGUUAGCAAUAUUACGUGAA | -1.07
CCGCAGCAAUAUUACGGUGG | -3.48
UGCGAGCAAUAUUACGUCGG | -1.91
CAAAAGCAAUAUUACGCGUC | -1.86
UUUUAGCAAUAUUACGUUGU | -2.13
UUCUAGCAAUAUUACGGUCU | -3.7
CAUAAGCAAUAUUACGGGGG | -2.42
CCAAAGCAAUAUUACGGGGA | -2.93
UCCUAGCAAUAUUACGAUCA | -1.36
CCGCAGCAAUAUUACGUGUG | -1.79
GAUCAGCAAUAUUACGUGUA | -0.723
CUGCAGCAAUAUUACGGAUA | -2.69
GAAAAGCAAUAUUACGGGCG | -0.282
CGUAAGCAAUAUUACGCGUG | -0.855
GCCGAGCAAUAUUACGGUUU | -0.815
GGGUAGCAAUAUUACGAUGA | -0.927
AUCCAGCAAUAUUACGGAGU | -1.99
AAUGAGCAAUAUUACGCUUA | -0.919
GCACAGCAAUAUUACGCGGC | -1.84
AGAUAGCAAUAUUACGCGUG | -1.01
UAUAAGCAAUAUUACGGGUG | 0.0941
GUUGAGCAAUAUUACGUAGU | -1.31
UACCAGCAAUAUUACGCUGA | -1.21
AGUCAGCAAUAUUACGACAU | -0.0465
GGCCAGCAAUAUUACGGAGU | -0.166
ACUAAGCAAUAUUACGUAUG | -1.25
GCGCAGCAAUAUUACGCUCC | -1.01
GAUAAGCAAUAUUACGCAGU | -1.65
AACGAGCAAUAUUACGCCGG | -0.855
UGAUAGCAAUAUUACGUACG | 0.13
GCUAAGCAAUAUUACGGCCC | -0.371
AGGCAGCAAUAUUACGAUCG | 0.135
UCGCAGCAAUAUUACGGUAA | -0.563
AACCAGCAAUAUUACGAGCU | -1.82
UGAAAGCAAUAUUACGUGCU | -1.32
CGACAGCAAUAUUACGACAG | 0.0609
GACUAGCAAUAUUACGACUU | 0.58
GCUCAGCAAUAUUACGGGAU | -0.195
ACCUAGCAAUAUUACGGAUC | -1.35
UUAUAGCAAUAUUACGUAUU | -2.08
ACGCAGCAAUAUUACGGAAC | -1.78
UGUCAGCAAUAUUACGGCUG | -0.843
CACAAGCAAUAUUACGCUAG | -1.43
ACACAGCAAUAUUACGUCUA | -0.282
